# procedure summary: activity coefficient (dimensionless); of the first substance listed, at infinite dilution; xn = mol fraction of the nth substance listed
# run parameters: 333.15 K; 101 kPa; Liquid; Chromatography; x1 = 0
quantity kind: activity coefficient

Kindly note the recorded activity coefficient for CCCO [propan-1-ol] + CCCC[N+]1(C)CCCC1.N#CN=C=[N-] , which is 0.668

Kindly note the recorded activity coefficient for COC(C)=O [methyl ethanoate] + CCCC[N+]1(C)CCCC1.N#CN=C=[N-] , which is 1.56

Kindly note the recorded activity coefficient for CCOC(C)=O [ethyl acetate] + CCCC[N+]1(C)CCCC1.N#CN=C=[N-] , which is 2.39

Kindly note the recorded activity coefficient for CCO [ethanol] + CCCC[N+]1(C)CCCC1.N#CN=C=[N-] , which is 0.538

Kindly note the recorded activity coefficient for CC#N [acetonitrile] + CCCC[N+]1(C)CCCC1.N#CN=C=[N-] , which is 0.68

Kindly note the recorded activity coefficient for CO [methanol] + CCCC[N+]1(C)CCCC1.N#CN=C=[N-] , which is 0.345

Kindly note the recorded activity coefficient for Cc1ccccc1 [toluene] + CCCC[N+]1(C)CCCC1.N#CN=C=[N-] , which is 2.26

Kindly note the recorded activity coefficient for CCCCCCC [heptane] + CCCC[N+]1(C)CCCC1.N#CN=C=[N-] , which is 68.9

Kindly note the recorded activity coefficient for FC(F)(F)C(Cl)Br (centres undefined) [1-bromo-1-chloro-2,2,2-trifluoroethane] + CCCC[N+]1(C)CCCC1.N#CN=C=[N-] , which is 0.694

Kindly note the recorded activity coefficient for ClCCl [dichloromethane] + CCCC[N+]1(C)CCCC1.N#CN=C=[N-] , which is 0.591

Kindly note the recorded activity coefficient for ClC(Cl)Cl [trichloromethane] + CCCC[N+]1(C)CCCC1.N#CN=C=[N-] , which is 0.453

Kindly note the recorded activity coefficient for CC(C)=O [acetone] + CCCC[N+]1(C)CCCC1.N#CN=C=[N-] , which is 0.942

Kindly note the recorded activity coefficient for CC(C)OC(C)C [diisopropyl ether] + CCCC[N+]1(C)CCCC1.N#CN=C=[N-] , which is 18

Kindly note the recorded activity coefficient for Cc1cccc(C)c1 [1,3-dimethylbenzene] + CCCC[N+]1(C)CCCC1.N#CN=C=[N-] , which is 3.56

Kindly note the recorded activity coefficient for C[N+](=O)[O-] [nitromethane] + CCCC[N+]1(C)CCCC1.N#CN=C=[N-] , which is 0.604

Kindly note the recorded activity coefficient for COC(=O)OC [dimethyl carbonate] + CCCC[N+]1(C)CCCC1.N#CN=C=[N-] , which is 1.29

Kindly note the recorded activity coefficient for c1ccccc1 [benzene] + CCCC[N+]1(C)CCCC1.N#CN=C=[N-] , which is 1.46

Kindly note the recorded activity coefficient for CCC(C)=O [butanone] + CCCC[N+]1(C)CCCC1.N#CN=C=[N-] , which is 1.32

Kindly note the recorded activity coefficient for C=CCCCCCC [oct-1-ene] + CCCC[N+]1(C)CCCC1.N#CN=C=[N-] , which is 44.4

====

# procedure summary: activity coefficient (dimensionless); of the first substance listed, at infinite dilution; xn = mol fraction of the nth substance listed
# run parameters: 318.15 K; 101 kPa; Liquid; Chromatography; x1 = 0
Assign activity coefficient to each entry below.
I'd appreciate a reply containing only the number, no unit.

Kindly note the recorded activity coefficient for CC1CCCCC1 [methylcyclohexane] + CCCC[N+]1(C)CCCC1.N#CN=C=[N-] , which is 32.5

Kindly note the recorded activity coefficient for CCCCCCC [heptane] + CCCC[N+]1(C)CCCC1.N#CN=C=[N-] , which is 76

Kindly note the recorded activity coefficient for COCCOC [1,2-dimethoxyethane] + CCCC[N+]1(C)CCCC1.N#CN=C=[N-] , which is 1.19

Kindly note the recorded activity coefficient for ClCCl [dichloromethane] + CCCC[N+]1(C)CCCC1.N#CN=C=[N-] , which is 0.541

Kindly note the recorded activity coefficient for ClC(Cl)Cl [trichloromethane] + CCCC[N+]1(C)CCCC1.N#CN=C=[N-] , which is 0.391

Kindly note the recorded activity coefficient for CCOC(C)=O [ethyl acetate] + CCCC[N+]1(C)CCCC1.N#CN=C=[N-] , which is 2.33

Kindly note the recorded activity coefficient for CCc1ccccc1 [ethylbenzene] + CCCC[N+]1(C)CCCC1.N#CN=C=[N-] , which is 3.52

Kindly note the recorded activity coefficient for c1ccccc1 [benzene] + CCCC[N+]1(C)CCCC1.N#CN=C=[N-] , which is 1.41

Kindly note the recorded activity coefficient for C1CCOC1 [tetrahydrofuran] + CCCC[N+]1(C)CCCC1.N#CN=C=[N-] , which is 1.36

Kindly note the recorded activity coefficient for c1ccsc1 [thiophene] + CCCC[N+]1(C)CCCC1.N#CN=C=[N-] , which is 0.851

Kindly note the recorded activity coefficient for CC#N [acetonitrile] + CCCC[N+]1(C)CCCC1.N#CN=C=[N-] , which is 0.67

Kindly note the recorded activity coefficient for CC(C)=O [acetone] + CCCC[N+]1(C)CCCC1.N#CN=C=[N-] , which is 0.905

Kindly note the recorded activity coefficient for CC(C)O [propan-2-ol] + CCCC[N+]1(C)CCCC1.N#CN=C=[N-] , which is 0.771

Kindly note the recorded activity coefficient for C=CCCCCCC [oct-1-ene] + CCCC[N+]1(C)CCCC1.N#CN=C=[N-] , which is 47.3

Kindly note the recorded activity coefficient for COC(C)(C)C [2-methoxy-2-methylpropane] + CCCC[N+]1(C)CCCC1.N#CN=C=[N-] , which is 6.04

Kindly note the recorded activity coefficient for CCCCCCCC [octane] + CCCC[N+]1(C)CCCC1.N#CN=C=[N-] , which is 115

Kindly note the recorded activity coefficient for CCCO [propan-1-ol] + CCCC[N+]1(C)CCCC1.N#CN=C=[N-] , which is 0.688

Kindly note the recorded activity coefficient for COC(C)=O [methyl ethanoate] + CCCC[N+]1(C)CCCC1.N#CN=C=[N-] , which is 1.51

Kindly note the recorded activity coefficient for CCC1CCCCC1 [ethylcyclohexane] + CCCC[N+]1(C)CCCC1.N#CN=C=[N-] , which is 50.1
